Sourced from the kinase profiling compilation of Christmann-Franck et al. (2016)

Target: FGFR4 (human) (UniProt P22455)
Sequence (P22455 whole entry, looked up): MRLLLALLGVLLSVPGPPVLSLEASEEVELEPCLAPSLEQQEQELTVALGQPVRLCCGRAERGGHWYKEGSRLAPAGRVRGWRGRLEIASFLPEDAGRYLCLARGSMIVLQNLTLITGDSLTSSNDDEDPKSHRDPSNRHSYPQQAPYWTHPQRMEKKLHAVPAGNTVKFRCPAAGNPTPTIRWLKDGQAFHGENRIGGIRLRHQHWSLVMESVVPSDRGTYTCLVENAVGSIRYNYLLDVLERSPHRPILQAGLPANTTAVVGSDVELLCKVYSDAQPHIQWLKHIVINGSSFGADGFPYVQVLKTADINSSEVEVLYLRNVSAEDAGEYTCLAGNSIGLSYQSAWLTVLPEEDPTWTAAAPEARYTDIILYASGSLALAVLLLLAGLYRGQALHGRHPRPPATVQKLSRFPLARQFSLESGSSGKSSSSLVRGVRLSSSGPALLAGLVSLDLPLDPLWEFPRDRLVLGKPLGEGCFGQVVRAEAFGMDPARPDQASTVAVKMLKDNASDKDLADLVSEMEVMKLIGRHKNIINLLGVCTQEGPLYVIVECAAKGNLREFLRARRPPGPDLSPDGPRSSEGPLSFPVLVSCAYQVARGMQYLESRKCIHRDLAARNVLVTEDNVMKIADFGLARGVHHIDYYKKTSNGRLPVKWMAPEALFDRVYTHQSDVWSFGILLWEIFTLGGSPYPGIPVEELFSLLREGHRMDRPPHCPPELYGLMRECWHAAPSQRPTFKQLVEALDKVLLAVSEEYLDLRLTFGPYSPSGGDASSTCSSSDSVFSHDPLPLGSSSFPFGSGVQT
Test: radiometric filter-binding kinase assay, Kinase HotSpot
Settings: compound 0.5 µM; ATP 10 µM
metric: residual activity (%)
Only the number, expressed in %, is required.

>>> print(df.to_string())
                            compound_string  endpoint_value
0  Cc1ccc(Nc2nccc(N(C)c3ccc4c(C)n(C)nc4c3)n2)cc1S(N)(=O)=O            68.3
1   Nc1ccc2ncnc(NCCc3ccc(Oc4ccccc4)cc3)c2c1             104
2  CC#CC(=O)Nc1cc2c(Nc3ccc(F)c(Cl)c3)ncnc2cn1             102
3  CCN(CC)CCNC(=O)c1c(C)[nH]c(/C=C2\C(=O)Nc3ccc(Cl)cc32)c1C            70.5
4  O=C1Nc2ccc(Cl)cc2/C1=C/c1cc(Cl)c(O)c(Cl)c1              98
5              Cc1ccc(S(=O)(=O)/C=C/C#N)cc1            94.3
6    CC(C)N(CCC(=O)c1ccc2ccccc2c1)Cc1ccccc1             103
7  CCOC(=O)c1c(C)[nH]c(/C=C2\C(=O)Nc3ccccc32)c1C            82.4
8   COc1ccc(COc2ccc(Cc3cnc(N)nc3N)cc2OC)cc1            99.7
9           Nc1ncnc2[nH]nc(Nc3ccc(F)cc3)c12             107

-- ask Please provide the recorded residual activity for CCN(CC)CCNC(=O)c1c(C)[nH]c(/C=C2\C(=O)Nc3ccc(F)cc32)c1C , tested on FGFR4 (human) (UniProt P22455).
-- reply 92.5

====

Molecular target: PRKX (human) (UniProt P51817)
Sequence (P51817 whole entry, looked up): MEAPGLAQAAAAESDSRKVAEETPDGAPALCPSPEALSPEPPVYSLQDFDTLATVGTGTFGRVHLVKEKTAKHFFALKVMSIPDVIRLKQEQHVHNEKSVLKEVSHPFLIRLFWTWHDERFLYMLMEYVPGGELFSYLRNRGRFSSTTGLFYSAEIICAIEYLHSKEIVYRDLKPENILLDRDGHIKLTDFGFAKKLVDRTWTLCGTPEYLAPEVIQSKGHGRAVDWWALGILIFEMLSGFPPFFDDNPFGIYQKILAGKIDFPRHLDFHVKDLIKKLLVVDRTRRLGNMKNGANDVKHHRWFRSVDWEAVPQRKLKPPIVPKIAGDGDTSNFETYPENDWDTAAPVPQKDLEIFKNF
Assay: radiometric filter-binding kinase assay, Kinase HotSpot
Settings: compound 0.5 µM; ATP 10 µM
metric: residual activity (%)
Only the number, expressed in %, is required.

Please review the following examples before continuing.
                            compound_string             metric  scale_unit  endpoint_value
0           Nc1ncnc2[nH]nc(Nc3ccc(F)cc3)c12  residual activity           %            90.4
1  CC[n+]1c(/C=C/N(C)c2ccccc2)n(-c2ccccc2)c2ccc(-c3nc4ccccc4s3)cc21  residual activity           %             108
2  CCOC(=O)c1c(C)[nH]c(/C=C2\C(=O)Nc3ccccc32)c1C  residual activity           %            94.8
3          O=c1cc(N2CCOCC2)oc2c1ccc1ccccc12  residual activity           %            96.6
4  Nc1cccc(-c2cc3c(Oc4cccc(O)c4)ncnc3[nH]2)c1  residual activity           %             114
5       N#CC(C#N)=C(N)/C(C#N)=C/c1ccc(O)cc1  residual activity           %            93.7
6  Cc1ccc(Nc2nccc(N(C)c3ccc4c(C)n(C)nc4c3)n2)cc1S(N)(=O)=O  residual activity           %             101
7  Nc1ncnc2c1c(-c1ccc(Oc3ccccc3)cc1)cn2C1CCCC1  residual activity           %             102
8     CCC(=O)Nc1ccc2ncnc(Nc3cccc(Br)c3)c2c1  residual activity           %            95.7
9  O=C1NC(=O)C(c2cn(CCCn3ccnc3)c3ccccc23)=C1Nc1ccccc1  residual activity           %            95.5

-- ask Form field: reported residual activity of O=C1Nc2ccc(Cl)cc2/C1=C/c1cc(Cl)c(O)c(Cl)c1
-- reply 92.1

-- ask Form field: reported residual activity of c1ccc(-c2n[nH]c3c2oc2ccccc23)cc1
-- reply 79.8

-- ask Form field: reported residual activity of CNC(=O)c1cc(Oc2ccc(NC(=O)Nc3ccc(Cl)c(C(F)(F)F)c3)cc2)ccn1
-- reply 97.7
